Biological target: SARS-CoV spike protein (full length, trimeric) (SARS-CoV, UniProt P59594 14-1190)
reported metric: fold over isotype control (median fluorescence) (fold over isotype)
The reply should contain only the number, in fold over isotype.

[in] Could you tell me which fold over isotype control (median fluorescence) is on file for antibody 476 (antibody, V domains shown) VH: QVQLVQSGSELKKPGASVKVSCKASGYTFTSYAMNWVRQAPGQGLEWMGWINTNTGNPTYAQGFTGRFVFSLDTSVSTAYLQISSLKAEDTGVYYCARDHELPNSSSWFGHFEYWGQGTLVTVSS VL: SYELTQPPSVSVSPGQTARITCSGDALPKQYAYWYQQKAGQAPVLVIYKDSERRSGIPERFSGSSSGTTVTLTISGVQAEDEADYYCQSADSSGTSVVFGGGTKLTVL ?
[out] 1.04

[in] Could you tell me which fold over isotype control (median fluorescence) is on file for antibody 454 (antibody, V domains shown) VH: QVQLVQSGAEVKKPGASLKVSCKASGYIFTGYYMHWVRQAPGQGLEWMGWISPNSGGTKYAQKFQGRVTMTRDTSISTAYMELSRLRSDDSAVYYCAREPYYDILTGYYTPRRYLDYWGQGTLVTVSS VL: QSALTQPASVSGSPGQSITISCTGTSSDVGDYNYVSWYQQHPGKVPKLMIYDVSHRPSGVTNRFSGSKSGNTASLTISGLRAEDEADYYCSSYTSSSTYVFGTGTKVTVL ?
[out] 1.1

[in] Could you tell me which fold over isotype control (median fluorescence) is on file for antibody 443 (antibody, V domains shown) VH: QMRLEESGPGLVKPSETLSLTCTVAGGSITSSDYFWGWLRQSPGKGLEWIASTYHGGSIQYHPALKSRVTISVDASKNQISLRLSSVTAADTAVYYCARDRGDDGPMGTYYFDHWGQGALVTVSS VL: QSVLTQPPSVSGAPGQSVTISCAGSSSNIGAGHDVHWYQQIPGTAPKLLICGNTNRPSGVPERFSGSRSGTSASLAITGLQAEDEAVYYCQSYDPSHVFFGTGTKLTVL ?
[out] 1.03

[in] Could you tell me which fold over isotype control (median fluorescence) is on file for antibody 485 (antibody, V domains shown) VH: QVQLQESGPGLVKPSGTLSLTCAVSGASISSSNWWSWVRQPPGKGLEWIGEIYHSGSTNYNPSLKSRVTISVDKSKNQFSLKLSSVTAADTAVYYCARRSYYGSGSYYPFDYWGQGTLVTVSS VL: QSALTQPASVSGSPGQSITISCTGTSSDVGSYNLVSWYQQHPGKAPKLMIYEGRKRPSGVSNRFSGSKSGNTASLTISGLQAEDEADYYCCSYAGSSTYVFGTGTKVTVL ?
[out] 1.12

[in] Could you tell me which fold over isotype control (median fluorescence) is on file for antibody 444 (antibody, V domains shown) VH: QVQLVESGGGLVKPGGSLRLSCAASGFTFSDYYMSWIRQAPGKGLEWVSYISSSGSTIYYADSVKGRFTISRDNAKNSLYLQMNSLRAEDTAVYYCARERKVVVAATRNYYYYYGMDVWGQGTTVTVSS VL: SYELTQPPSVSVSPGQTARITCSGDALPKQYAYWYQQKPGQAPVLVIYKDSERPSGIPERFSGSSSGTTVTLTISGVQAEDEADYYCQSADSSTWVFGGGTKLTVL ?
[out] 1

[in] Could you tell me which fold over isotype control (median fluorescence) is on file for antibody 434 (antibody, V domains shown) VH: QVQLVQSGAEVKKPGASVQVSCKASGYTFSDYYIFWVRQAPGQGLEWMGCINPKSGGAIYAQRFQGRVTMTRDTSFNTAYMEMNRLGSDDTAVYYCVTRGPPDIAASGFAWHLDVWGQGTTVTVSS VL: DIVMTQSPLSLPVTPGEPASISCRSSQSLLSSNGYNYLEWYLQKPGQSPQLLMYLGSNRASGVPDRFSGSGSGTDFTLKINRVEAEDVGVYYCMQALQTPLTFGGGTKVEIK ?
[out] 1.36
